# target.under.test: human ether-à-go-go-related gene (hERG) potassium channel (human, UniProt Q12809)
# Sequence (Q12809 whole entry, looked up): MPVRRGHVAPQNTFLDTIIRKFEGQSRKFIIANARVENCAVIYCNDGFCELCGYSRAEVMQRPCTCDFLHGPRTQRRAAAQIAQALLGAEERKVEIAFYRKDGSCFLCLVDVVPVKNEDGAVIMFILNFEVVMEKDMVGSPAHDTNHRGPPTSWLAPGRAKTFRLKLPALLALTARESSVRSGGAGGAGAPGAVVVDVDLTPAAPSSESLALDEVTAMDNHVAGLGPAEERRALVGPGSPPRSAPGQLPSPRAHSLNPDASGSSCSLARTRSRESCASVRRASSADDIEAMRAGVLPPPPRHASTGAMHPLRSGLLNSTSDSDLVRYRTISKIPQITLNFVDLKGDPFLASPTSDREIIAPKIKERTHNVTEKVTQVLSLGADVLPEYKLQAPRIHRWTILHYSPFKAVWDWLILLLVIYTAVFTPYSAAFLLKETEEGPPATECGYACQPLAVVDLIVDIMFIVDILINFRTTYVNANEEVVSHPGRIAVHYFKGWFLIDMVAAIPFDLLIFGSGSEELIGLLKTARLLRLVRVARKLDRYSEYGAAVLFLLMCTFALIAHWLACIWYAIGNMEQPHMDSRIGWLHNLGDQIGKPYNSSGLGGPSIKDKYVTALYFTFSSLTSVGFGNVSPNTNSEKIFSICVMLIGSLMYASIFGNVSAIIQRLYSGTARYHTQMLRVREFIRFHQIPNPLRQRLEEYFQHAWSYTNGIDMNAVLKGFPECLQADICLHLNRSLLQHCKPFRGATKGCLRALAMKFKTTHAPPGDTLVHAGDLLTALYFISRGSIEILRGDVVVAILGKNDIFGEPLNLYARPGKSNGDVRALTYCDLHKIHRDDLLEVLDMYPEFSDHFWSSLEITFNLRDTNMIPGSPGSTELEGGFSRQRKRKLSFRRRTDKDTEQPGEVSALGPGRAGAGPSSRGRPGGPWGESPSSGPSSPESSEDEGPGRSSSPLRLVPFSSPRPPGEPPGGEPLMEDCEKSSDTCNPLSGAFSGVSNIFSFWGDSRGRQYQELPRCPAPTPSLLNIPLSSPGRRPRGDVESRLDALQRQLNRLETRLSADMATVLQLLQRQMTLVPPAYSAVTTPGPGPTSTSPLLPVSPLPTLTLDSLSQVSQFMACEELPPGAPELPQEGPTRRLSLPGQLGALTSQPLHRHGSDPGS
# procedure.details: primary screen, population patch clamp on CHO cells stably expressing hERG; higher = less effect of the substance
Screen size: about 310,000 compounds; about 14,000 (4.5%) showed an effect of 50% or more. The effect is printed as a negative number. Only a selection was taken, and strong results are over-represented in it overall.
# hERG current change (%, negative = inhibition) at 10uM per record follows
measure: hERG current change (%, negative = inhibition) at 10uM (%)

compound=O=C(CN1CCN(S(=O)(=O)c2ccccc2)CC1)Nc1ccccc1C(=O)NC1CC1 readout_value=-27.1
compound=CCCCCCC(=O)N/N=C/c1c(O)n(C2CC2)c(=S)[nH]c1=O readout_value=-4.67
compound=Br.COc1ccccc1N1CCN(CCCCN2C(=O)c3ccccc3C2=O)CC1 readout_value=-53.5
compound=COc1cccc(NC(=O)[C@@H]2CCCN2S(=O)(=O)c2cccc3cccnc23)c1 readout_value=-5.87
compound=COc1ccccc1N1CCN(CCCCOc2ccc(C)cc2C)CC1.O=C(O)C(=O)O readout_value=-50.3
compound=COc1cccc(CN2CCN(Cc3cc(OC)c(OC)c(OC)c3)CC2)c1OC.O=C(O)C(=O)O readout_value=-8.03
compound="Cc1ccccc1NC(=O)C(C)O/N=C/c1cccc([N+](=O)[O-])c1 (stereo not drawn)" readout_value=-38.7
compound=COc1ccccc1OCCCCN1CCN(c2ccccc2OC)CC1.O=C(O)C(=O)O readout_value=-43.1
compound="COC(=O)c1ccc2c(=O)n(CC3CCCO3)c(SCC(=O)Nc3ccccc3OC)nc2c1 (stereo not drawn)" readout_value=-4.41

----------
# target.under.test: human ether-à-go-go-related gene (hERG) potassium channel (human);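 further: peak tail current of the secondary pulse compared with the same well before compound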
# procedure.details: primary screen, population patch clamp on CHO cells stably expressing hERG; higher = less effect of the substance
Out of some 310,000 compounds screened, about 14,000 (4.5%) showed an effect of 50% or more. Effects have a minus sign here. The sample holds strong results, similar compounds and a random draw of the others, so the mix is not that of the screen.
# hERG current change (%, negative = inhibition) at 10uM per record follows
measure: hERG current change (%, negative = inhibition) at 10uM (%)

compound=O=C(COc1ccccc1Cl)N1CCN(c2ccc(F)cc2)CC1 readout_value=-6.04
compound="COc1ccccc1N1CCN(C2CCCN(C(=O)CC(F)(F)F)C2)CC1 (stereo not shown)" readout_value=12.4
compound=O=C(Cn1nc(-c2ccccc2)nc1-c1ccccc1)OC1CCCCC1 readout_value=7.88
compound="COc1ccc(N2CCN(C3CCCN(C(=O)CSC)C3)CC2)cc1 (stereo not shown)" readout_value=3.1
compound=CCOC(=O)N1CCN(C(=O)c2cc3cc(OC)c(OC)cc3[nH]2)CC1 readout_value=5.96
compound="CC1(C)CC2CC(C)(CN2S(=O)(=O)c2ccc(F)cc2F)C1 (stereo not shown)" readout_value=-11.8
compound="O=C(CCN1CCCCO1)N1CCCC(N2CCN(c3ccc(F)cc3)CC2)C1 (stereo not shown)" readout_value=-11.2
compound="O=C1CN(C(=O)c2ccccc2F)C(c2ccc(F)cc2)c2cc(F)ccc2N1 (stereo not shown)" readout_value=-11.7
compound="COc1ccccc1OCC(=O)N1CCCC(N2CCN(c3ccc(F)cc3)CC2)C1 (stereo not shown)" readout_value=-52.9
compound="COc1ncccc1C(=O)N1CCCC(N2CCN(c3ccc(F)cc3)CC2)C1 (stereo not shown)" readout_value=-26.7

----------
# target.under.test: human ether-à-go-go-related gene (hERG) potassium channel (human);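 further: peak tail current of the secondary pulse compared with the same well before compound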
# procedure.details: primary screen, population patch clamp on CHO cells stably expressing hERG; higher = less effect of the substance
In all, about 310,000 compounds went through this assay and about 14,000 (4.5%) showed an effect of 50% or more. The effect is printed as a negative number. The entries come from a sample that favours strong results as a whole.
measure: hERG current change (%, negative = inhibition) at 10uM (%)

structure=Cl.O=[N+]([O-])c1ccc(N2CCN(Cc3ccccc3)CC2)nc1 readout_value=-59
structure=Cc1nc2ccccc2c(=O)n1CCCn1ccnc1 readout_value=-17
structure=O=C1c2ccccc2C(=O)N1CCCc1nc2ccccc2c(=O)n1CCCn1ccnc1 readout_value=-65
structure=O=C1c2ccccc2C(=O)N1CCc1nc2ccccc2c(=O)n1Cc1ccco1 readout_value=-61.8
structure=O=C1c2ccccc2C(=O)N1Cc1nc2ccccc2c(=O)n1Cc1ccco1 readout_value=21.3

----------
# target.under.test: human ether-à-go-go-related gene (hERG) potassium channel (human);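 further: peak tail current of the secondary pulse compared with the same well before compound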
# procedure.details: primary screen, population patch clamp on CHO cells stably expressing hERG; higher = less effect of the substance
Out of some 310,000 compounds screened, about 14,000 (4.5%) showed an effect of 50% or more. Effects have a minus sign here. Shown is part of a subset that was picked to be rich in strong results.
# hERG current change (%, negative = inhibition) at 10uM per record follows
measure: hERG current change (%, negative = inhibition) at 10uM (%)

molecule=COc1cc(S(=O)(=O)NCc2cccnc2)ccc1F endpoint_unit=% readout_value=-5.7
molecule=Cn1cc(CN2CCC(n3nccc3NC(=O)CCc3ccccc3)CC2)cn1 endpoint_unit=% readout_value=16
molecule=Cn1cc(CN2CCC(n3nccc3NC(=O)CCOc3ccccc3)CC2)cn1 endpoint_unit=% readout_value=17.1
molecule=Cc1cc(C)c(S(=O)(=O)c2ccccc2C)c(OCCN(C)C)n1 endpoint_unit=% readout_value=-20.2
molecule=CCOc1cccc(CN2CCC(n3nccc3NC(=O)CCCc3ccccc3)CC2)c1 endpoint_unit=% readout_value=-27.5
molecule=CC(=O)c1cccc(CN2CCC(n3nccc3NC(=O)CCCc3ccccc3)CC2)c1 endpoint_unit=% readout_value=-37.8
molecule=CC(=O)Nc1ccc(CN2CCC(n3nccc3NC(=O)CCc3ccccc3)CC2)cc1 endpoint_unit=% readout_value=-5.87
molecule=Cn1c(=O)c2c(nc(CN3CCOCC3)n2CCc2ccccc2)n(C)c1=O endpoint_unit=% readout_value=7.53
molecule=O=C(NCc1ccc2c(c1)OCO2)c1ccc(CN2CCOCC2)cc1 endpoint_unit=% readout_value=15.3
molecule="O=C(NCc1ccccc1)C1Cc2ccccc2CN1C(=O)c1ccco1 (stereo not shown)" endpoint_unit=% readout_value=-12.2

----------
# target.under.test: human ether-à-go-go-related gene (hERG) potassium channel (human, UniProt Q12809);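 further: peak tail current of the secondary pulse compared with the same well before compound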
# procedure.details: primary screen, population patch clamp on CHO cells stably expressing hERG; higher = less effect of the substance
The campaign covered roughly 310,000 compounds. About 14,000 (4.5%) showed an effect of 50% or more. The effect is printed as a negative number. Shown is part of a subset that was picked to be rich in strong results.
measure: hERG current change (%, negative = inhibition) at 10uM (%)

compound="OC(CNCCC(c1ccccc1)c1ccccc1)COc1ccccc1 (stereo not shown)" endpoint_unit=% readout_value=-71.4
compound="CC1CCCCN1CC(O)COc1ccc(OCC(O)CN2CCCCC2C)cc1 (stereo not shown)" endpoint_unit=% readout_value=16.4
compound="COc1ccc(OC)c(S(=O)(=O)N2CCN(CC(O)COc3ccccc3)CC2)c1 (stereo not shown)" endpoint_unit=% readout_value=-34.7
compound=O=C1OC(/C=C/c2ccc(Cl)cc2)=NC/1=C/c1ccco1 endpoint_unit=% readout_value=2.78
compound="N#Cc1ccc(-c2ccc(OCC(O)CN3CCOCC3)cc2)cc1 (stereo not shown)" endpoint_unit=% readout_value=-18.4
compound=Cc1ccc(NC(=O)c2cccc(S(=O)(=O)N3CCN(c4ccc(F)cc4)CC3)c2)nc1 endpoint_unit=% readout_value=-14.6
compound=CCCCCCCCCCCCN1[C@@H](CC(=O)OC)c2cc(F)cc(F)c2S1(=O)=O endpoint_unit=% readout_value=11.1
compound="CCOC(=O)c1ccc(S(=O)(=O)N2CCN(CC(O)COc3ccc(C#N)cc3)CC2)cc1.O=C(O)C(=O)O (stereo not shown)" endpoint_unit=% readout_value=-63.2
compound=CC(=O)Nc1nc(C)c(CCCOc2ccc([N+](=O)[O-])cc2)c(=O)[nH]1 endpoint_unit=% readout_value=0.762
compound=CN1CCN(C2=Nc3cc(F)ccc3Cc3ccccc32)CC1 endpoint_unit=% readout_value=-35.7
compound=CCNC(=S)N1CCN(CCN=CC2=C(O)CC(C)(C)CC2=O)CC1 endpoint_unit=% readout_value=-9.75
compound=COc1ccc(-c2nc3c(n2O)CCc2c-3no[n+]2[O-])cc1 endpoint_unit=% readout_value=10.6
compound=O=C(O)c1nc(-c2ccccc2)n(-c2ccccc2)n1 endpoint_unit=% readout_value=4.87
compound=C(=N\Nc1nc(N2CCOCC2)nc(N2CCOCC2)n1)/c1ccco1 endpoint_unit=% readout_value=30.2
compound="CC1CN(CC(O)COc2ccc(C#N)cc2)CCN1CC(O)COc1ccc(C#N)cc1 (stereo not shown)" endpoint_unit=% readout_value=-77.2
compound="CCOC(=O)c1ccc(S(=O)(=O)N2CCN(CC(O)COc3cccc(C(C)=O)c3)CC2)cc1.O=C(O)C(=O)O (stereo not shown)" endpoint_unit=% readout_value=-6.64
compound=O=C(NCc1ccco1)c1cccc(F)c1 endpoint_unit=% readout_value=6.59
compound="CSc1ccc(C(C(C(=O)c2cccs2)N2CCOCC2)N2CCOCC2)cc1 (stereo not shown)" endpoint_unit=% readout_value=-3.73
compound=Nc1nc2ccccc2n1/N=C/c1ccc(-c2ccccc2)o1 endpoint_unit=% readout_value=-11.8
compound=Cn1c(=O)cc(OCC(=O)N2CCN(Cc3ccc4c(c3)OCO4)CC2)c2ccccc21 endpoint_unit=% readout_value=-33.4
compound=Cc1ccc(S(=O)(=O)Nc2ccnc3ccccc23)cc1 endpoint_unit=% readout_value=-4.28
compound=CCN1C(=S)N[C@@H](c2cccs2)C(C(=O)OC)=C1C endpoint_unit=% readout_value=4.42
compound=COc1ccc(-c2cn3cccnc3n2)cc1F endpoint_unit=% readout_value=12.2
compound="COc1ccc(OC)c(S(=O)(=O)N2CCN(CC(O)COc3ccc(C#N)cc3)CC2)c1 (stereo not shown)" endpoint_unit=% readout_value=-66.2
compound=COc1ccc(NS(=O)(=O)c2cccc(C(=O)NNC(=O)c3ccccc3OC)c2)cc1 endpoint_unit=% readout_value=-16.4
compound=CC(=O)NC1(c2cccc(F)c2)CCN(C(=O)Nc2ccc(C#N)cc2)CC1 endpoint_unit=% readout_value=-13.8
compound="OC(CCc1ccncc1)COc1ccccc1 (stereo not shown)" endpoint_unit=% readout_value=3.52
compound=COc1ccc(-c2cn3cccc(C)c3n2)cc1F endpoint_unit=% readout_value=-61.7
compound=COc1cccc(NC(=O)Nc2ccccc2C(N)=O)c1 endpoint_unit=% readout_value=1.99
compound=Cc1c(C(=O)NCc2ccc(S(N)(=O)=O)cc2)oc2ccc(Cl)cc12 endpoint_unit=% readout_value=10
compound=OC(c1ccc(F)cc1)(c1ccc(F)cc1)[C@@H]1CCCN1 endpoint_unit=% readout_value=7.57
compound=O=C(OCC(=O)N1CCCC1=O)c1cc(S(=O)(=O)N2CCOCC2)ccc1F endpoint_unit=% readout_value=-22.5
compound=CC(C)Cn1c(N)c(C=O)c(=O)n(C)c1=O endpoint_unit=% readout_value=26.4
compound=CCOC(=O)Cn1c(S(=O)(=O)Cc2ccccc2Cl)nc(-c2ccccc2)c1-c1ccccc1 endpoint_unit=% readout_value=-6.2
compound=CC(C)Cn1c(SCC(=O)N2CC(=O)Nc3ccccc32)nc2ccccc21 endpoint_unit=% readout_value=4.27
compound=Cc1cccn2cc(-c3ccc(F)cc3)nc12 endpoint_unit=% readout_value=-14.1
compound="COc1ccc(S(=O)(=O)N2CCN(CC(O)COc3ccc(C#N)cc3)CC2)cc1OC (stereo not shown)" endpoint_unit=% readout_value=-46.9
compound=COC(=O)c1ccc(COC(=O)C2CCN(S(=O)(=O)c3c(Cl)cccc3Cl)CC2)o1 endpoint_unit=% readout_value=-7.62
compound=COc1cc(/C=C/c2ccc3c(Br)cc(Br)c(O)c3n2)ccc1O endpoint_unit=% readout_value=17.2
compound=COc1ccc(CCNC(=O)CSc2nnc3c(n2)[nH]c2ccc(F)cc23)cc1OC endpoint_unit=% readout_value=12.8
